assaySystem: MERS RBD-hFc (MERS-CoV (isolate EMC/2012))
protocol: SPR Biacore, captured mAb, 37 C
Recorded kon, one value per entry.
measurementKind: kon (M⁻¹ s⁻¹)

| binder | experimentalValue |
| --- | --- |
| H1M15289N (antibody, V domains shown) VH: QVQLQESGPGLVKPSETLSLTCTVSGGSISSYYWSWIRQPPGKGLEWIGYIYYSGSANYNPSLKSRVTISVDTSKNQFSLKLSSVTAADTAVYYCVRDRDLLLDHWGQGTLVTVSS VL: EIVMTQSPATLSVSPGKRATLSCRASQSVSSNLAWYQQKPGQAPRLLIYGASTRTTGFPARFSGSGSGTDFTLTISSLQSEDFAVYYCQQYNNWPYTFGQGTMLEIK | 459000 |
| H2bM15292N (antibody, V domains shown) VH: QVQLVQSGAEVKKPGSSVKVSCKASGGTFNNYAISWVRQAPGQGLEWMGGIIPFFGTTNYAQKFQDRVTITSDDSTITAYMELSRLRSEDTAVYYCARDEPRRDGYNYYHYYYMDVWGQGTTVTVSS VL: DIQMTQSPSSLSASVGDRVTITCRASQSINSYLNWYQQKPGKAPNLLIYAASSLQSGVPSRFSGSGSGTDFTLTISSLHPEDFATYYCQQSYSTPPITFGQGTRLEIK | 544000 |
| H2aM15278N (antibody, V domains shown) VH: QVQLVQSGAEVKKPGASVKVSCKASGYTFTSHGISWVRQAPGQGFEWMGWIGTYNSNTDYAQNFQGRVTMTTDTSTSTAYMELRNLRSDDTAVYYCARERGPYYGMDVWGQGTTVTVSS VL: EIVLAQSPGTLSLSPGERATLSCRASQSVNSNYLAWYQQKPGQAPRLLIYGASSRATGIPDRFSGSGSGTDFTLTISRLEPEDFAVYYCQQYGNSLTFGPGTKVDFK | 2.17e+06 |
